B1: tRNA (parent)
chain: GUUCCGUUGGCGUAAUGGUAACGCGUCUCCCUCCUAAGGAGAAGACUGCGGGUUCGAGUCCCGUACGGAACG

- Variants of: B1
- ASSAY: yeast fitness relative to wild type (ratio to wild type); higher = fitter; tRNA-Arg(CCU), competitive growth, 37 C, YPD
This sample holds only a part of the variants without activity.
ENDPOINT_LABEL: yeast fitness

mutation_notation="C29G C34U C62U" observed="≤ 0.5"

Ask | Given the variant C4U G12C A20G U47A C49U A57U C61A G68A , what is its reported yeast fitness?
Reply | ≤ 0.5

Ask | Param item = A15C G23C C60U A69G ; retrieve measured yeast fitness.
Reply | ≤ 0.5

Ask | // yeast fitness lookup, key: C5A C11G C27U G41C
Reply | ≤ 0.5

Ask | May I ask what yeast fitness has been recorded for U19C G23A C29G ?
Reply | ≤ 0.5

Ask | State the recorded yeast fitness for this entry: C30U C49U U54A
Reply | ≤ 0.5

Ask | Entry A21G C61G C62U : reported yeast fitness = ?
Reply | ≤ 0.5

Ask | Quick one: yeast fitness for G9C C22G C33G G63C ?
Reply | ≤ 0.5

Ask | # lookup: yeast fitness of C11U U13G U19A C22G G25A G48A A69U
Reply | ≤ 0.5
